target-under-test: T1, cynomolgus FOLR1 protein, His Tag (ACRO F01-C52H8) (cynomolgus, UniProt A0A2K5U044 25-233)
T1 construct: Bought protein coated on ELISA plates; also called Cynomolgus/Rhesus macaque FOLR1, Protein, His Tag; not shown: His tag
T1 sequence (A0A2K5U044 entry or part of it): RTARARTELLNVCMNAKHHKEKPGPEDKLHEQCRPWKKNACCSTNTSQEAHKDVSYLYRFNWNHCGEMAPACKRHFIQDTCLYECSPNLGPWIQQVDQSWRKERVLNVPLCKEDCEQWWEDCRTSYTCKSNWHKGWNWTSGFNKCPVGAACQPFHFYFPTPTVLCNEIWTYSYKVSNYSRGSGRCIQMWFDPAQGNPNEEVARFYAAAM
experimental-details: ELISA, coated cyno FOLR1-His, supernatant 25x
measured-endpoint: OD450 (OD450)

>>> test_value("F123 (antibody, V domains shown, Tested as full-length IgG with an IgG1 Fc from HEK293, as supernatant or purified; also called clone F123; anti-FOLR1 antibody F123) VH: EVQLLESGGGVVQPERSLRLSCAASGFTFSSYGMHWVRQAPGKGLEWVAVISYDGSNKYYADSVKGRFTISRANSKNTLYLQMNSLRAEDTAVYYCARPRAYYGAYGSSFDYWGQGTQVTVSS VL: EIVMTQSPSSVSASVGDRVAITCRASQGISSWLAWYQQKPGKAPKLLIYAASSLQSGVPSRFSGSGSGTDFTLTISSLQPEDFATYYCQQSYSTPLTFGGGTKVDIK")
1.07
>>> test_value("F48 (antibody, V domains shown, Tested as full-length IgG with an IgG1 Fc from HEK293, as supernatant or purified; also called clone F48; anti-FOLR1 antibody F48) VH: EVQLLESGGGVVQPGRSLRLSCAASGFTFSSYGMHWVRQAPGKGLEWVAVISYDGSNKYYADSVKGRFTISRDNSKNTLYLHMNSLRAEDTAVYYCARPRAYYGAYGSSFDYWGQGTQVTVSS VL: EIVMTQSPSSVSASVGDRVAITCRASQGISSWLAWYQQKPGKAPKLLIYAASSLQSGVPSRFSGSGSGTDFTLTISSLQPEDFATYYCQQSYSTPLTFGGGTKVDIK")
0.908
